Ref: paper PMC5564600

Molecular target: panel of 442 kinases (Homo sapiens)
Construct: purchased Ambit Biosciences (scanMAXX KINOMEscan)
Experiment: biochemical
Assay type: binding
Details: kinase LIMK1; 1 µM; read-out: % of control at 1 µM
Reported remaining activity at 1 µM values follow for various molecules
REPORTED ENDPOINT: remaining activity at 1 µM (%)

- Nc1cc(C(F)(F)F)c(-c2cc(N3CCOCC3)nc(N3CCOCC3)n2)cn1 [Buparlisib]: 100
- COc1ncc(-c2ccc3nccc(-c4ccnnc4)c3c2)cc1NS(=O)(=O)c1ccc(F)cc1F [Omipalisib]: 100
- FC(F)c1nc2ccccc2n1-c1nc(N2CCOCC2)nc(N2CCOCC2)n1 [ZSTK474]: 95
- Cn1c(=O)n(-c2ccc(C(C)(C)C#N)cc2)c2c3cc(-c4cnc5ccccc5c4)ccc3ncc21 [Dactolisib]: 99

###

Biological target: panel of 442 kinases (Homo sapiens)
Construct: purchased Ambit Biosciences (scanMAXX KINOMEscan)
Experiment: biochemical
Assay type: binding
Conditions: kinase PAK1; 1 µM; read-out: % of control at 1 µM
Reported remaining activity at 1 µM values follow for various compounds
REPORTED ENDPOINT: remaining activity at 1 µM (%)

- COc1ncc(-c2ccc3nccc(-c4ccnnc4)c3c2)cc1NS(=O)(=O)c1ccc(F)cc1F [Omipalisib]: 55
- Nc1cc(C(F)(F)F)c(-c2cc(N3CCOCC3)nc(N3CCOCC3)n2)cn1 [Buparlisib]: 100
- FC(F)c1nc2ccccc2n1-c1nc(N2CCOCC2)nc(N2CCOCC2)n1 [ZSTK474]: 100
- Cn1c(=O)n(-c2ccc(C(C)(C)C#N)cc2)c2c3cc(-c4cnc5ccccc5c4)ccc3ncc21 [Dactolisib]: 100

###

Reported remaining activity at 1 µM values follow for various compounds
Target: panel of 442 kinases (Homo sapiens)
Construct: purchased Ambit Biosciences (scanMAXX KINOMEscan)
Experiment: biochemical
Assay type: binding
Conditions: FER; 1 µM; read-out: % of control at 1 µM
REPORTED ENDPOINT: remaining activity at 1 µM (%)

- FC(F)c1nc2ccccc2n1-c1nc(N2CCOCC2)nc(N2CCOCC2)n1: 55
- Nc1cc(C(F)(F)F)c(-c2cc(N3CCOCC3)nc(N3CCOCC3)n2)cn1: 100
- COc1ncc(-c2ccc3nccc(-c4ccnnc4)c3c2)cc1NS(=O)(=O)c1ccc(F)cc1F: 100
- Cn1c(=O)n(-c2ccc(C(C)(C)C#N)cc2)c2c3cc(-c4cnc5ccccc5c4)ccc3ncc21: 60

###

Target: panel of 442 kinases (Homo sapiens, UniProt Q15835)
Construct: purchased Ambit Biosciences (scanMAXX KINOMEscan)
Sequence (Q15835 whole entry): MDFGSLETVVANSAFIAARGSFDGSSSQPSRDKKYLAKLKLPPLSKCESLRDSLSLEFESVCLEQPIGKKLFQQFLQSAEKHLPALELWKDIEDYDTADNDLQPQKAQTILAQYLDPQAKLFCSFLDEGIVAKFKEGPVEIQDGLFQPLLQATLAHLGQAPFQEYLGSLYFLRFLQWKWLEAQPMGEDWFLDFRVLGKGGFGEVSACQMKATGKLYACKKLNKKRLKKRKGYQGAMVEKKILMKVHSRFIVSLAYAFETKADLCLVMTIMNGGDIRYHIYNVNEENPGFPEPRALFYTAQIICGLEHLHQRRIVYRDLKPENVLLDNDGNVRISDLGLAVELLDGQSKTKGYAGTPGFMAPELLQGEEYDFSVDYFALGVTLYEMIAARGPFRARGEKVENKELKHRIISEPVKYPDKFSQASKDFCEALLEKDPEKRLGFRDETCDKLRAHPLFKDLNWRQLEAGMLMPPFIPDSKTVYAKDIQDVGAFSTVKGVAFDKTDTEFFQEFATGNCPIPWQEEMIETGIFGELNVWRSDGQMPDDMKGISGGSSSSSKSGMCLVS
Assay: biochemical
Type: binding
Conditions: kinase GRK1; 1 µM; read-out: % of control at 1 µM
Reported remaining activity at 1 µM values follow for various compounds
REPORTED ENDPOINT: remaining activity at 1 µM (%)

• COc1ncc(-c2ccc3nccc(-c4ccnnc4)c3c2)cc1NS(=O)(=O)c1ccc(F)cc1F [Omipalisib] = 81
• FC(F)c1nc2ccccc2n1-c1nc(N2CCOCC2)nc(N2CCOCC2)n1 [ZSTK474] = 100
• Cn1c(=O)n(-c2ccc(C(C)(C)C#N)cc2)c2c3cc(-c4cnc5ccccc5c4)ccc3ncc21 [Dactolisib] = 100
• Nc1cc(C(F)(F)F)c(-c2cc(N3CCOCC3)nc(N3CCOCC3)n2)cn1 [Buparlisib] = 100

###

Target: panel of 442 kinases (Homo sapiens, UniProt Q99755)
Construct: purchased Ambit Biosciences (scanMAXX KINOMEscan)
Sequence (Q99755 whole entry): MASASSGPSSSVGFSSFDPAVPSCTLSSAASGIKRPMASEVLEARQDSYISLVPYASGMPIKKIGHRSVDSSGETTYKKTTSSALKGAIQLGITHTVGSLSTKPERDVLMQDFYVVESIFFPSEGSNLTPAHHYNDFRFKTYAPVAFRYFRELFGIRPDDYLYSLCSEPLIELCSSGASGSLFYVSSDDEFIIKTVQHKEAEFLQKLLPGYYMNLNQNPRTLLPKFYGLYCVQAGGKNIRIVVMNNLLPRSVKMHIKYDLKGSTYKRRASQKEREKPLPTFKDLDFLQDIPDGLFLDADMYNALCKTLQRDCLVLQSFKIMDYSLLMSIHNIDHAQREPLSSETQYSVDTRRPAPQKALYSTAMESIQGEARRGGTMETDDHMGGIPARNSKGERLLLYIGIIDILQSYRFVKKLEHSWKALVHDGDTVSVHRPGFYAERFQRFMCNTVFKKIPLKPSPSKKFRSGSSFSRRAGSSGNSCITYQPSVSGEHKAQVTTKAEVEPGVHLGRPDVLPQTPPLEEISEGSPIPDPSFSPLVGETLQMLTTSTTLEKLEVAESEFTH
Assay: biochemical
Type: binding
Conditions: kinase PIP5K1A; 1 µM; read-out: % of control at 1 µM
Reported remaining activity at 1 µM values follow for various molecules
REPORTED ENDPOINT: remaining activity at 1 µM (%)

* Nc1cc(C(F)(F)F)c(-c2cc(N3CCOCC3)nc(N3CCOCC3)n2)cn1 [Buparlisib] | 100
* Cn1c(=O)n(-c2ccc(C(C)(C)C#N)cc2)c2c3cc(-c4cnc5ccccc5c4)ccc3ncc21 [Dactolisib] | 59
* COc1ncc(-c2ccc3nccc(-c4ccnnc4)c3c2)cc1NS(=O)(=O)c1ccc(F)cc1F [Omipalisib] | 100
* FC(F)c1nc2ccccc2n1-c1nc(N2CCOCC2)nc(N2CCOCC2)n1 [ZSTK474] | 100

###

Molecular target: panel of 442 kinases (Homo sapiens)
Construct: purchased Ambit Biosciences (scanMAXX KINOMEscan)
Test: biochemical
Assay type: binding
Conditions: kinase RIOK1; 1 µM; read-out: RIOK1 (% of control at 1 µM)
REPORTED ENDPOINT: remaining activity at 1 µM (%)

- Nc1cc(C(F)(F)F)c(-c2cc(N3CCOCC3)nc(N3CCOCC3)n2)cn1: 89
- FC(F)c1nc2ccccc2n1-c1nc(N2CCOCC2)nc(N2CCOCC2)n1: 84
- Cn1c(=O)n(-c2ccc(C(C)(C)C#N)cc2)c2c3cc(-c4cnc5ccccc5c4)ccc3ncc21: 66
- COc1ncc(-c2ccc3nccc(-c4ccnnc4)c3c2)cc1NS(=O)(=O)c1ccc(F)cc1F: 100

###

Target: panel of 442 kinases (Homo sapiens)
Construct: purchased Ambit Biosciences (scanMAXX KINOMEscan)
Test: biochemical
Format: binding
Settings: kinase SRC; 1 µM; read-out: SRC (% of control at 1 µM)
REPORTED ENDPOINT: remaining activity at 1 µM (%)

- Cn1c(=O)n(-c2ccc(C(C)(C)C#N)cc2)c2c3cc(-c4cnc5ccccc5c4)ccc3ncc21: 94
- COc1ncc(-c2ccc3nccc(-c4ccnnc4)c3c2)cc1NS(=O)(=O)c1ccc(F)cc1F: 100
- FC(F)c1nc2ccccc2n1-c1nc(N2CCOCC2)nc(N2CCOCC2)n1: 100
- Nc1cc(C(F)(F)F)c(-c2cc(N3CCOCC3)nc(N3CCOCC3)n2)cn1: 94

###

Target: panel of 442 kinases (Homo sapiens, UniProt P00533, DEL752-759)
Construct: purchased Ambit Biosciences (scanMAXX KINOMEscan)
Sequence (P00533 with tags, fused parts or gaps DEL752-759): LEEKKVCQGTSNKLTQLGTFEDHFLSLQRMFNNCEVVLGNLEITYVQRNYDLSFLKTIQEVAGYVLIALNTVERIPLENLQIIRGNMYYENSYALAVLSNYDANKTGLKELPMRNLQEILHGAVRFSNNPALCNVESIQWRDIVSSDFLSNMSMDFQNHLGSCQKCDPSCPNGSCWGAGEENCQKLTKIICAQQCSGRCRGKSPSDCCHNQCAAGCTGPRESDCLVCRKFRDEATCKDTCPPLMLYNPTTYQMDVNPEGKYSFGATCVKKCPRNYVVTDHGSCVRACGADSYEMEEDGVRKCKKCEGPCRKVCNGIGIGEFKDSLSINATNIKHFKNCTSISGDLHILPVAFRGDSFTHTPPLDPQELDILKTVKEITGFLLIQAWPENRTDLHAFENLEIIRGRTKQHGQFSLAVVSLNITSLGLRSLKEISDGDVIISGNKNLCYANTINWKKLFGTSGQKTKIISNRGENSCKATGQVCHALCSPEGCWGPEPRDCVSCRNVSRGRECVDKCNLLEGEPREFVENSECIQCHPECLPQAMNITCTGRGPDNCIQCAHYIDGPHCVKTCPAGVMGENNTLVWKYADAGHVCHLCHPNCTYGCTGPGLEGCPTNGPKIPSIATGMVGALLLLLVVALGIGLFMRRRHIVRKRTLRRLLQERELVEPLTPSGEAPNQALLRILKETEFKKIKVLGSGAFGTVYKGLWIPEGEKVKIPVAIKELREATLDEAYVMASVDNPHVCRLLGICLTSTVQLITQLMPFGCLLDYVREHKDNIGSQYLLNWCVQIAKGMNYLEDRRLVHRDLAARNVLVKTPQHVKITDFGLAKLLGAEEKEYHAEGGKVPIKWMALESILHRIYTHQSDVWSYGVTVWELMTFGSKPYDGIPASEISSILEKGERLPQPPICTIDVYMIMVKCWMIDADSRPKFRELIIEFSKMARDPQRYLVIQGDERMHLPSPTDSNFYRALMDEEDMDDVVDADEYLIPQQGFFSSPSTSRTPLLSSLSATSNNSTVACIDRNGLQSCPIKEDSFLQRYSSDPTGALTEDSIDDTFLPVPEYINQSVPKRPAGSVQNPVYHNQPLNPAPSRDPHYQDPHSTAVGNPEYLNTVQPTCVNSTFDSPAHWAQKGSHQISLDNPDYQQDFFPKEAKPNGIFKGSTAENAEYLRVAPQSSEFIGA
Assay: biochemical
Assay type: binding
Conditions: EGFR(S752-I759del); 1 µM; read-out: % of control at 1 µM
REPORTED ENDPOINT: remaining activity at 1 µM

• Cn1c(=O)n(-c2ccc(C(C)(C)C#N)cc2)c2c3cc(-c4cnc5ccccc5c4)ccc3ncc21 [Dactolisib] = 100%
• COc1ncc(-c2ccc3nccc(-c4ccnnc4)c3c2)cc1NS(=O)(=O)c1ccc(F)cc1F [Omipalisib] = 100%
• FC(F)c1nc2ccccc2n1-c1nc(N2CCOCC2)nc(N2CCOCC2)n1 [ZSTK474] = 100%
• Nc1cc(C(F)(F)F)c(-c2cc(N3CCOCC3)nc(N3CCOCC3)n2)cn1 [Buparlisib] = 83%

###

Reported remaining activity at 1 µM values follow for various molecules
Target: panel of 442 kinases (Homo sapiens, UniProt P28482)
Construct: purchased Ambit Biosciences (scanMAXX KINOMEscan)
Sequence (P28482 whole entry): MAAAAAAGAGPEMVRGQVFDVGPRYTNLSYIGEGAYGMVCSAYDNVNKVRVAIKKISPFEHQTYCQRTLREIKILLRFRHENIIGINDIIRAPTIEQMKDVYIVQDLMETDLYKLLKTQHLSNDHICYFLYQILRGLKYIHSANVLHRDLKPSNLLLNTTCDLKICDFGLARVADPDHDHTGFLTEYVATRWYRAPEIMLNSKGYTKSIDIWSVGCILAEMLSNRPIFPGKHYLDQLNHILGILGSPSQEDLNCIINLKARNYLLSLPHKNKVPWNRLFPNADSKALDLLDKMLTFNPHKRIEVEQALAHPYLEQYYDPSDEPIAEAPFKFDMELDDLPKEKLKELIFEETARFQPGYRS
Test: biochemical
Type: binding
Settings: ERK2; 1 µM; read-out: % of control at 1 µM
REPORTED ENDPOINT: remaining activity at 1 µM (%)

• FC(F)c1nc2ccccc2n1-c1nc(N2CCOCC2)nc(N2CCOCC2)n1 [ZSTK474] = 100
• Cn1c(=O)n(-c2ccc(C(C)(C)C#N)cc2)c2c3cc(-c4cnc5ccccc5c4)ccc3ncc21 [Dactolisib] = 88
• COc1ncc(-c2ccc3nccc(-c4ccnnc4)c3c2)cc1NS(=O)(=O)c1ccc(F)cc1F [Omipalisib] = 100
• Nc1cc(C(F)(F)F)c(-c2cc(N3CCOCC3)nc(N3CCOCC3)n2)cn1 [Buparlisib] = 100

###

Biological target: panel of 442 kinases (Homo sapiens, UniProt P00519, Y253F)
Construct: purchased Ambit Biosciences (scanMAXX KINOMEscan)
Assay: biochemical
Format: binding
Settings: ABL1(Y253F)-phosphorylated; 1 µM; read-out: % of control at 1 µM
REPORTED ENDPOINT: remaining activity at 1 µM (%)

- FC(F)c1nc2ccccc2n1-c1nc(N2CCOCC2)nc(N2CCOCC2)n1: 96
- Cn1c(=O)n(-c2ccc(C(C)(C)C#N)cc2)c2c3cc(-c4cnc5ccccc5c4)ccc3ncc21: 82
- COc1ncc(-c2ccc3nccc(-c4ccnnc4)c3c2)cc1NS(=O)(=O)c1ccc(F)cc1F: 100
- Nc1cc(C(F)(F)F)c(-c2cc(N3CCOCC3)nc(N3CCOCC3)n2)cn1: 85

###

Molecular target: panel of 442 kinases (Homo sapiens, UniProt O75676)
Construct: purchased Ambit Biosciences (scanMAXX KINOMEscan)
Sequence (O75676 whole entry): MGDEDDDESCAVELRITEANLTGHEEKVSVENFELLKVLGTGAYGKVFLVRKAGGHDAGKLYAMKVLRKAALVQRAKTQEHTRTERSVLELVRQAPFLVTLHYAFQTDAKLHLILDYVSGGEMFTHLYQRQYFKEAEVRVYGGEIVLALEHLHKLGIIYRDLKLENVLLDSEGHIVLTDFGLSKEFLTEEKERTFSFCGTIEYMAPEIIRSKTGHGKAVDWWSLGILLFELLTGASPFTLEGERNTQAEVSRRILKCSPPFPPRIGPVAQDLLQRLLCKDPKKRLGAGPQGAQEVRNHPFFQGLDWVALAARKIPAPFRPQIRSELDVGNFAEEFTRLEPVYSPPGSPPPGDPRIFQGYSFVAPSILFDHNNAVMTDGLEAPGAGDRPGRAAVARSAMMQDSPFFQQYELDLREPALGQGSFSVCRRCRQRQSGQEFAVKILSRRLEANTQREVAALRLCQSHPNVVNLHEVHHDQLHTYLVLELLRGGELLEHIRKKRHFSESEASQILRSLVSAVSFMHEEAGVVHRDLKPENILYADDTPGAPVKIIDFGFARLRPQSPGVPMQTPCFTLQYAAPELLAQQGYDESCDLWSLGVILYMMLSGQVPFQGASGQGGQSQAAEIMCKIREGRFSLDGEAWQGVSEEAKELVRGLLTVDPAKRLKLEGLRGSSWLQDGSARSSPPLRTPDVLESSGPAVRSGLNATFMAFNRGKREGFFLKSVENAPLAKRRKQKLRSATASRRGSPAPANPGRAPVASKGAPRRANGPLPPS
Assay: biochemical
Assay type: binding
Conditions: kinase RPS6KA4(Kin.Dom.1-N-terminal); 1 µM; read-out: RPS6KA4(Kin.Dom.1-N-terminal) (% of control at 1 µM)
Reported remaining activity at 1 µM values follow for various compounds
REPORTED ENDPOINT: remaining activity at 1 µM (%)

- FC(F)c1nc2ccccc2n1-c1nc(N2CCOCC2)nc(N2CCOCC2)n1: 100
- Cn1c(=O)n(-c2ccc(C(C)(C)C#N)cc2)c2c3cc(-c4cnc5ccccc5c4)ccc3ncc21: 100
- Nc1cc(C(F)(F)F)c(-c2cc(N3CCOCC3)nc(N3CCOCC3)n2)cn1: 83
- COc1ncc(-c2ccc3nccc(-c4ccnnc4)c3c2)cc1NS(=O)(=O)c1ccc(F)cc1F: 100
